Source of measurements: ChEMBL document CHEMBL4184210

# Test system: Escherichia coli
# METHOD SUMMARY: microbe, parasite or virus in culture
# Description: Antimicrobial activity against Escherichia coli expressing beta-lactamase Oxa-18 by CLSI broth microdilution method
Parameter MIC: see the listing below.
METRIC NAME: MIC

>  <COMPOUND>
Nc1nc(/C(=N/OC2(C(=O)O)CC2)C(=O)N[C@@H]2C(=O)N(S(=O)(=O)O)[C@@H]2CN2CCOC2=O)cs1 (stereo in doubt)

>  <TESTED TARGET>
Escherichia coli

>  <METRIC NAME>
MIC

>  <RESULT>
0.5 µg/mL

$$$$
>  <COMPOUND>
CCN1CCN(C(=O)N[C@@H](C(=O)N[C@@H]2C(=O)N3[C@@H]2SC(C)(C)[C@@H]3C(=O)O)c2ccccc2)C(=O)C1=O

>  <TESTED TARGET>
Escherichia coli

>  <METRIC NAME>
MIC

>  <RESULT>
> 64 µg/mL

$$$$
>  <COMPOUND>
CC(C)(O/N=C(\C(=O)N[C@@H]1C(=O)N2C(C(=O)[O-])=C(C[n+]3ccccc3)CS[C@H]12)c1csc(N)n1)C(=O)O

>  <TESTED TARGET>
Escherichia coli

>  <METRIC NAME>
MIC

>  <RESULT>
> 64 µg/mL

$$$$
